target: Inadl_6, Q8NI35; experiment: holdup assay; set-up: key: below the threshold = too weak to quantify, mostly under pKd 3.1 to 4; settings: plain residues with an end cap or a label only (N-terminal biotin on a linker: ado-ado)
Sequence (Q8NI35 1058-1167): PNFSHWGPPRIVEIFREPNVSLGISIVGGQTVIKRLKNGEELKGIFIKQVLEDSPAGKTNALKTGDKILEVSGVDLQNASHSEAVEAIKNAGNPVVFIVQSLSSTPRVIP
MEASUREMENT TYPE: pKd

QHKTQLQTLI [BPIFA2, Q96DR5] ... 3.56
PDGQCTVTEV [RNF146, Q9NTX7] ... 3.95
LSEFKAMDSI [CTNNA1, P35221] ... below the threshold
LPHPHSTTRV [NLGN2, Q8NFZ4] ... below the threshold
TKGPRGPTRV [SAPCD1, Q5SSQ6] ... below the threshold
QSPANIYYKV [EFNB1, P52799] ... below the threshold
QGPVETESVV [SLC45A4, Q5BKX6] ... 3.57
AKPSRISTVV [IQSEC2, Q5JU85] ... below the threshold
QSLNRMEYIV [JAG1, P78504] ... below the threshold
YYKRPVQEWV [MMP24, Q9Y5R2] ... 3.7
KSGKQTMLVV [TRIM29, Q14134;Q14134-2] ... below the threshold
HLRARKSEWV [GJD4, Q96KN9] ... below the threshold
QSARLWETSI [ADAM22, Q9P0K1] ... 4.06
KKMPSIESDV [GRIN2A, Q12879] ... below the threshold
GNSVLKSTQF [SLC22A12, Q96S37] ... below the threshold
QPCFNKLFPL [LPXN, O60711] ... below the threshold
QGLAERISVL [PRKD2, Q9BZL6] ... 4.02
ETQVTAETVI [TMEM225B, P0DP42] ... below the threshold
SAAKVLTSMC [GHRHR, Q02643] ... below the threshold
KKAPTNEFYA [SDC4, P31431] ... below the threshold
QKNRKAQEDL [CES3, Q6UWW8] ... below the threshold
RHGSCVETSL [TMEM151B, Q8IW70] ... 4.31
VNKSKLLTDV [KCNA1, Q09470] ... below the threshold
NHSSSPETTA [TRMT13, Q9NUP7] ... below the threshold
PAPSSGKDYV [CLDN1, O95832] ... below the threshold
PPYRHRNTVV [ERBB4, Q15303] ... below the threshold
DDPSTAETVL [ABCA7, Q8IZY2] ... 3.98
RRISSLESEV [GRIN2C, Q14957] ... below the threshold
VDSTVKVWTC [TRAF7, Q6Q0C0] ... below the threshold
EALLQMESVA [CAVIN3, Q969G5] ... below the threshold
LGRSTPQSEV [DGKH, Q86XP1] ... below the threshold
SKSNFGSEPL [KIF17, Q9P2E2] ... below the threshold
